Assay: Effective concentration for inhibition of […] in kinase assay along with ADP
Design: species or system Bacillus subtilis
propertyName: pEC50
Remember the convention: pEC50 equals -log10 of concentration in molar.

Which pEC50 reading was recorded for the compound Nc1n(Cc2ccccc2)c2ccccc2[n+]1CCCCCCCCCCCC[n+]1c(N)n(Cc2ccccc2)c2ccccc21.Nc1ncnc2c1ncn2[C@@H]1O[C@H](COP(=O)(O)OP(=O)(O)O)[C@@H](O)[C@H]1O ?
4.92

###

Biological target: HPr kinase/phosphorylase (Bacillus subtilis (strain 168))
Assay: Percent inhibition of Histidine containing protein K in kinase assay with histidine containing protein at 100 uM
Note to self: values exactly at 30% are Y. So inhibition at or above 30% is Y, below is N.

Below are worked cases with known answers.
> print(dat)
                                entrysmiles  answerlabel
1  Nc1n(Cc2ccccc2)c2ccccc2[n+]1CCCCCNCc1ccccc1            Y
2  CCCCCCCCCCCC[n+]1c(N)n(CCCc2ccccc2)c2ccccc21            Y
3  Nc1n(Cc2ccccc2)c2ccccc2[n+]1CC(=O)Nc1ccccc1            N
4     NCCCCCC[n+]1c(N)n(Cc2ccccc2)c2ccccc21            Y
5   Nc1n(Cc2ccccc2)c2ccccc2[n+]1CCCc1ccccc1            N

Please check the record Nc1n(Cc2ccccc2)c2ccccc2[n+]1CCCCCCCCCCCO and state if its inhibition is at or above 30%.
Y

Request: Nc1n(Cc2ccccc2)c2ccccc2[n+]1CC(=O)[O-]
N

Request: CCCCCCCCCCCC[n+]1c(N)n(Cc2ccc(OC)cc2)c2ccccc21
Y

Request: CCCCCCCC[n+]1c(N)n(Cc2ccccc2)c2ccccc21
Y

Request: Nc1n(Cc2ccccc2)c2ccccc2[n+]1CCCCCCCCCCCCNC1CCCCC1
Y

Request: CCCCCCCCCCCC[n+]1c(N)n(Cc2ccc(Cl)cc2)c2ccccc21
N

###

Assay: Effective concentration for inhibition of […] in phosphatase assay
Design: species or system Bacillus subtilis
propertyName: EC50 (µM)
Field: numeric (µM). Do not append units.

Which EC50 reading was recorded for the compound Nc1n(Cc2ccccc2)c2ccccc2[n+]1CCCCCCCCCCCC[n+]1c(N)n(Cc2ccccc2)c2ccccc21.Nc1ncnc2c1ncn2[C@@H]1O[C@H](COP(=O)(O)OP(=O)(O)O)[C@@H](O)[C@H]1O ?
14

###

Target: HPr kinase/phosphorylase (Bacillus subtilis (strain 168)) (UniProt O34483)
Sequence (whole entry): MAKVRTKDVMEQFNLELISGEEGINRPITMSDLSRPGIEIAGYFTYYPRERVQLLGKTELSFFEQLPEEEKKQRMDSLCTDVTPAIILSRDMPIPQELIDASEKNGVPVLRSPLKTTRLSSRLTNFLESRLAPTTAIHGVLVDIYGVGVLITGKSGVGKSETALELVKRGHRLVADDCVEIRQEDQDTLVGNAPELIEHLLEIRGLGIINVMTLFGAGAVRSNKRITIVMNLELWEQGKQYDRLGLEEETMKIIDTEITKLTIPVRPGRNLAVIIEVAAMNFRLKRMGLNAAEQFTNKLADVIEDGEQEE
Assay: Percent inhibition of Histidine containing protein K/P in kinase assay
Parameters: concentration or dose not given beside the values
Conditions: concentration not given here
Recorded measurements of inhibition, one per entry

Worked cases, inhibition given:
> print(dat)
                                entrysmiles                           systemundertest  measuredvalue
1  Nc1sc2ccccc2[n+]1CCCCCCCCCCCC[n+]1c(N)sc2ccccc21  HPr kinase/phosphorylase (Bacillus subtilis (strain 168)) (UniProt O34483)           < 5%
2  c1c[n+](CCCCCCCCCCCC[n+]2cc[nH]c2)c[nH]1  HPr kinase/phosphorylase (Bacillus subtilis (strain 168)) (UniProt O34483)           < 5%
3  Nc1cc2c(n[n+]1CCCCCCCCCCCC[n+]1nc3c(cc1N)-c1ccccc1CC3)CCc1ccccc1-2  HPr kinase/phosphorylase (Bacillus subtilis (strain 168)) (UniProt O34483)           < 5%
4  Nc1c2ccccc2cc[n+]1CCCCCCCCCCCC[n+]1ccc2ccccc2c1N  HPr kinase/phosphorylase (Bacillus subtilis (strain 168)) (UniProt O34483)           < 5%

Record lookup: for HPr kinase/phosphorylase (Bacillus subtilis (strain 168)) (UniProt O34483), what inhibition belongs to Cn1c(N)[n+](CCCCCCCCCCCC[n+]2c(N)n(C)c3ccccc32)c2ccccc21 ?
64%

Request: Nc1cccc[n+]1CCCCCCCCCCCC[n+]1ccccc1N
< 5%

###

Recorded measurements of inhibition, one per entry
Target: HPr kinase/phosphorylase (Bacillus subtilis (strain 168)) (UniProt O34483)
Assay: Percent inhibition of Histidine containing protein K in kinase assay with histidine containing protein at 100 uM
Field: numeric (%). Do not append units.

Worked cases, inhibition given:
> print(dat)
                                entrysmiles  measuredvalue
1  CN1CCN(CCCCCCCCCCCC[n+]2c(N)n(Cc3ccccc3)c3ccccc32)CC1             93
2  CCCCCCCCCCCC[n+]1c(N)n(CCc2ccccc2)c2ccccc21             98

Which inhibition reading was recorded for the compound NC(=O)CCCCC[n+]1c(N)n(Cc2ccccc2)c2ccccc21 ?
11

Request: CCCCC[n+]1c(N)n(Cc2ccccc2)c2ccccc21
32

Request: NCCCCCCCCCCC[n+]1c(N)n(Cc2ccccc2)c2ccccc21
62

Request: Nc1n(Cc2ccccc2)c2ccccc2[n+]1CCCCCCO
5

###

Molecular target: HPr kinase/phosphorylase (Bacillus subtilis (strain 168)) (UniProt O34483)
Assay: Percent inhibition of Histidine containing protein K in kinase assay with histidine containing protein at 100 uM
Note to self: values exactly at 10% are fulfilled. So inhibition at or above 10% is fulfilled, below is not fulfilled.

Below are worked cases with known answers.
> print(dat)
                                entrysmiles    answerlabel
1  Nc1n(Cc2ccccc2)c2ccccc2[n+]1CCCCCCCCN1CCN(c2ccccc2)CC1      fulfilled
2          Nc1n(Cc2ccccc2)c2ccccc2[n+]1CCCO  not fulfilled

Then there is this compound:
Please check the record CCC[n+]1c(N)n(Cc2ccccc2)c2ccccc21 and state if its inhibition is at or above 10%.
fulfilled

###

Target: HPr kinase/phosphorylase (Bacillus subtilis (strain 168))
Sequence (whole entry): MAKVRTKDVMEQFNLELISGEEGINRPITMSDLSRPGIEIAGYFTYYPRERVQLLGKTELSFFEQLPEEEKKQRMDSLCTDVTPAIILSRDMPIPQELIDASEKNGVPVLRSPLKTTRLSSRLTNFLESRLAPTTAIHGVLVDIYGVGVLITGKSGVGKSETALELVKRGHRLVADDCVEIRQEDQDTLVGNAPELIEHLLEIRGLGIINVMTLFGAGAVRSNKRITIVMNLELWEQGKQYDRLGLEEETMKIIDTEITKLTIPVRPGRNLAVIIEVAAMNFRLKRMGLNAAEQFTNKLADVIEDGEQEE
Assay: Percent inhibition of Histidine containing protein K in kinase assay with histidine containing protein at 100 uM
propertyName: inhibition (%)
Field: numeric (%). Do not append units.

Worked cases, inhibition given:
> print(dat)
                                entrysmiles  propertyname  measuredvalue
1  CCCCCCCCCCCC[n+]1c(N)n(Cc2ccc(Cl)c(Cl)c2)c2ccccc21    inhibition             51
2  Nc1n(Cc2ccccc2)c2ccccc2[n+]1CCCCCN1CCN(c2ccccc2)CC1    inhibition             34

# evaluate next
Record lookup: for HPr kinase/phosphorylase (Bacillus subtilis (strain 168)), what inhibition belongs to CCCCCCCCCCCC[n+]1c(N)n(Cc2ccc(C)cc2)c2ccccc21 ?
23
